pIC50 by entry:
Target: His tagged PTPN2 (TC45) protein (Homo sapiens)
Construct: made in house
Sequence (P17706 with tags, fused parts or gaps isoform P17706-2): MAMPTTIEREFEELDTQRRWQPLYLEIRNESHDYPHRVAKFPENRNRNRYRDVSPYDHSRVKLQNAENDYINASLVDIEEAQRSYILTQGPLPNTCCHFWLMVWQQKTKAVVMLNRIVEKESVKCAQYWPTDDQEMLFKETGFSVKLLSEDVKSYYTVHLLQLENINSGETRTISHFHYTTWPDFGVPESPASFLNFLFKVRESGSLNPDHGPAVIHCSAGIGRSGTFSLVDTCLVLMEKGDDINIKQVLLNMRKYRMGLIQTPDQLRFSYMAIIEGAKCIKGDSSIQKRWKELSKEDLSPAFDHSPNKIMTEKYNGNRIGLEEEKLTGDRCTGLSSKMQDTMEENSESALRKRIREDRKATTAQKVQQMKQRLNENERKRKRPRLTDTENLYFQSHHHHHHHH
Test: Mobility shift assay (MSA) for potency of PTPN2 inhibitors
Assay type: biochemical
Conditions: read-out: PTPN2 MSA IC50
Description: Compound activity was determined using in house His tagged PTPN2 (TC45) protein (SEQ ID NO: 1) in an in vitro enzymatic reaction. The enzymatic assay used to determine activity was a mobility shift assay using a LabChip EZ Reader by Caliper Life Sciences. The enzymatic reaction was carried out in assay buffer (50 mM HEPES pH 7.5, 1 mM EGTA, 10 mM EDTA, 0.01% Tween® 20, and 2 mM DTT). […]
pIC50: −log10 of the molar value.
assayReadout: pIC50

>>> df
                                    compound  recordedresult
 0  O=C1CN(c2c(O)cc3ccc(C4CCS(=O)(=O)CC4)cc3c2F)S(=O)(=O)N1    8.00 to 9.00
 1  O=C1CN(c2c(O)cc3ccc(OCCn4cccn4)cc3c2F)S(=O)(=O)N1    8.00 to 9.00
 2  Cc1n[nH]c(C)c1-c1ccc2cc(O)c(N3CC(=O)NS3(=O)=O)c(F)c2c1    8.00 to 9.00
 3  C=C(c1ccc2cc(O)c(N3CC(=O)NS3(=O)=O)c(F)c2c1)c1c(C)c(C)c(C)c(C)c1C          < 7.00
 4  Cc1n[nH]c(C)c1COc1ccc2cc(O)c(N3CC(=O)NS3(=O)=O)c(F)c2c1    8.00 to 9.00
 5  COc1ccc2cc(O)c(N3CC(=O)NS3(=O)=O)c(F)c2c1Cl    7.00 to 8.00
 6  O=C1CN(c2c(O)cc3ccc(C4=CCN(S(=O)(=O)CCC(F)(F)F)C4)cc3c2F)S(=O)(=O)N1          > 9.00
 7  CCS(=O)(=O)N1CC=C(c2ccc3cc(O)c(N4CC(=O)NS4(=O)=O)c(F)c3c2)C1          > 9.00
 8  CN(C)CCNc1ccc2cc(O)c(N3CC(=O)NS3(=O)=O)c(F)c2c1    7.00 to 8.00
 9  O=C1CN(c2c(O)cc3ccc(OCC4CCNCC4)cc3c2F)S(=O)(=O)N1    8.00 to 9.00
10  NC12CC(CCOc3ccc4cc(O)c(N5CC(=O)NS5(=O)=O)c(F)c4c3)(C1)C2    8.00 to 9.00
11  CC(C)(C)CCNc1ccc2cc(O)c(N3CC(=O)NS3(=O)=O)c(F)c2c1    8.00 to 9.00
12  O=C1CN(c2c(O)cc3ccc(NC4CCN(S(=O)(=O)C5CC5)C4)cc3c2F)S(=O)(=O)N1 (stereo not shown)    8.00 to 9.00
13  [2H]c1c(O)c(N2C([2H])([2H])C(=O)NS2(=O)=O)c(F)c2cc(OC)ccc12    8.00 to 9.00
14  CC(C)S(=O)(=O)N1CCC(c2ccc3cc(O)c(N4CC(=O)NS4(=O)=O)c(F)c3c2)C1 (stereo not shown)          > 9.00
15  O=C1CN(c2c(O)cc3ccc(-c4cnn(S(=O)(=O)C5CC5)c4)cc3c2F)S(=O)(=O)N1          > 9.00

---

inhibition at 33 µM by entry:
tested on: B16F10 mouse melanoma cells; test: B16F10 IFNγ-induced cellular growth inhibition assay; format: cell-based; settings: Mus musculus, B16-F10; no IFNγ; 33 μM compound; read-out: % B16F10 growth inhibition (no IFNγ) @ 33 μM
assayReadout: inhibition at 33 µM

>>> print(df.to_string())
                                   compound         assayreadout  recordedresult
0  C[C@H](O)CCOc1ccc2cc(O)c(N3CC(=O)NS3(=O)=O)c(F)c2c1  inhibition at 33 µM           < 25%
1  O=C1CN(c2c(O)cc3ccc(C4CNC4)cc3c2F)S(=O)(=O)N1  inhibition at 33 µM           < 25%
2  O=C1CN(c2c(O)cc3ccc(C4CN(S(=O)(=O)C5CC5)C4)cc3c2F)S(=O)(=O)N1  inhibition at 33 µM           < 25%
3  O=C1CN(c2c(O)cc3ccc(OCC4(F)CCNC4)cc3c2F)S(=O)(=O)N1 (centres unmarked)  inhibition at 33 µM           < 25%
4  O=C(COc1ccc2cc(O)c(N3CC(=O)NS3(=O)=O)c(F)c2c1)NCCC1CC1  inhibition at 33 µM           < 25%
5  COc1ccc2c(F)c(O)c(N3CC(=O)NS3(=O)=O)c(F)c2c1  inhibition at 33 µM           < 25%
6  O=C1CN(c2c(O)cc3ccc(OCC4CCCO4)cc3c2F)S(=O)(=O)N1 (centres unmarked)  inhibition at 33 µM           < 25%
7  Nc1ccccc1CS(=O)(=O)N1CC=C(c2ccc3cc(O)c(N4CC(=O)NS4(=O)=O)c(F)c3c2)C1  inhibition at 33 µM           < 25%

---

test system: B16F10 mouse melanoma cells; test: B16F10 IFNγ-induced cellular growth inhibition assay; type: cell-based; settings: Mus musculus, B16-F10; +0.5 ng/mL IFNγ; 33 μM compound; relative to DMSO control; read-out: % B16F10 growth inhibition (+0.5 ng/mL IFNγ) @ 33 μM
assayReadout: inhibition at 33 µM

In [3]: df
Out[3]:
                                    molecule  recordedresult
 0  O=C1CN(c2c(O)cc3ccc(CC4CCN(S(=O)(=O)C5CC5)C4)cc3c2F)S(=O)(=O)N1 (stereo not drawn) [Compound 261]       25 to 59%
 1  CCS(=O)(=O)N1CC=C(c2ccc3cc(O)c(N4CC(=O)NS4(=O)=O)c(F)c3c2)C1 [Compound 295]           > 90%
 2  O=C1CN(c2c(O)cc3ccc4occc4c3c2F)S(=O)(=O)N1 [Compound 104]       25 to 59%
 3  O=C1CN(c2c(O)cc3ccc(C4=CCN(C(=O)C5CC5)C4)cc3c2F)S(=O)(=O)N1 [Compound 237]           > 90%
 4  O=C1CN(c2c(O)cc3ccc(C4CCN(S(=O)(=O)C5CC5)C4)cc3c2F)S(=O)(=O)N1 (stereo not drawn) [Compound 101]       60 to 90%
 5  O=C1CN(c2c(O)cc3ccc(OCCNS(=O)(=O)C4CC4)cc3c2F)S(=O)(=O)N1 [Compound 127]       60 to 90%
 6  Nc1ccc(CS(=O)(=O)N2CC=C(c3ccc4cc(O)c(N5CC(=O)NS5(=O)=O)c(F)c4c3)C2)cc1 [Compound 184]       25 to 59%
 7  NCCOc1ccc2cc(O)c(N3CC(=O)NS3(=O)=O)c(F)c2c1 [Compound 309]       60 to 90%
 8  N#CCCCCOc1ccc2cc(O)c(N3CC(=O)NS3(=O)=O)c(F)c2c1 [Compound 111]       60 to 90%
 9  NC12CC(CCOc3ccc4cc(O)c(N5CC(=O)NS5(=O)=O)c(F)c4c3)(C1)C2 [Compound 121]       60 to 90%
10  O=C1CN(c2c(O)cc3ccc(NCCC4CC4)cc3c2F)S(=O)(=O)N1 [Compound 224]           > 90%
11  CC1(CCOc2ccc3cc(O)c(N4CC(=O)NS4(=O)=O)c(F)c3c2)CC1 [Compound 193]       25 to 59%
12  O=C1CN(c2c(O)cc3ccc(CC4CN(S(=O)(=O)C5CC5)C4)cc3c2F)S(=O)(=O)N1 [Compound 256]       25 to 59%
13  COc1ccc2c(F)c(O)c(N3CC(=O)NS3(=O)=O)c(F)c2c1 [Compound 117]       25 to 59%
14  CS(=O)(=O)N1CCC(F)(COc2ccc3cc(O)c(N4CC(=O)NS4(=O)=O)c(F)c3c2)C1 (stereo not drawn) [Compound 307]       25 to 59%
15  O=C1CN(c2c(O)cc3ccc(C4=CCN(S(=O)(=O)C5CC5)C4)cc3c2F)S(=O)(=O)N1 [Compound 113]           > 90%
16  O=C1CN(c2c(O)cc3ccc(OCCC4CCCO4)cc3c2F)S(=O)(=O)N1 (stereo not drawn) [Compound 213]       60 to 90%
17  [2H]c1c(O)c(N2C([2H])([2H])C(=O)NS2(=O)=O)c(F)c2cc(OC)ccc12 [Compound 106]       60 to 90%
18  CC(C)S(=O)(=O)N1CC=C(c2ccc3cc(O)c(N4CC(=O)NS4(=O)=O)c(F)c3c2)C1 [Compound 296]           > 90%
19  CNc1ccc2cc(O)c(N3CC(=O)NS3(=O)=O)c(F)c2c1 [Compound 107]       60 to 90%
20  N#CCC1(COc2ccc3cc(O)c(N4CC(=O)NS4(=O)=O)c(F)c3c2)CC1 [Compound 130]       60 to 90%
21  O=C1CN(c2c(O)cc3ccc(CCC4CC4)cc3c2F)S(=O)(=O)N1 [Compound 209]       60 to 90%
22  [2H]C1([2H])C(=O)NS(=O)(=O)N1c1c(O)cc2ccc(OC)cc2c1F [Compound 123]       60 to 90%
23  O=C1CN(c2c(O)cc3ccc(C4=CCN(CC5CC5)C4)cc3c2F)S(=O)(=O)N1 [Compound 242]       60 to 90%
24  COc1ccc2c(Br)c(O)c(N3CC(=O)NS3(=O)=O)c(F)c2c1 [Compound 243]       25 to 59%
25  CC(C)(C)OCCOc1ccc2cc(O)c(N3CC(=O)NS3(=O)=O)c(F)c2c1 [Compound 217]       25 to 59%
26  CP(C)(=O)c1ccc(-c2ccc3cc(O)c(N4CC(=O)NS4(=O)=O)c(F)c3c2)s1 [Compound 141]       60 to 90%
27  COCCNc1ccc2cc(O)c(N3CC(=O)NS3(=O)=O)c(F)c2c1 [Compound 179]           > 90%
28  CS(=O)(=O)N1CC[C@@H](Nc2ccc3cc(O)c(N4CC(=O)NS4(=O)=O)c(F)c3c2)C1 [Compound 304]           > 90%
29  COCCCOc1ccc2cc(O)c(N3CC(=O)NS3(=O)=O)c(F)c2c1 [Compound 247]       60 to 90%
30  O=C1CN(c2c(O)cc3ccc(OCCC(F)(F)F)cc3c2F)S(=O)(=O)N1 [Compound 180]       60 to 90%
31  O=C1CN(c2c(O)cc3ccc(/C=C/C4CC4)cc3c2F)S(=O)(=O)N1 [Compound 239]       60 to 90%
32  O=C1CN(c2c(O)cc3ccc(OC4CC4)cc3c2F)S(=O)(=O)N1 [Compound 223]       60 to 90%
